List of melting point values.

Please review the following examples before continuing.
compound | melting point
CC(Oc1ncn(-c2cc(Cl)cc(Cl)c2)n1)C(=O)O (stereo not given) | 230 to 231 °C
Cc1ccc(NC(=O)c2ccc(Br)cc2)cc1N1CCN(C)CC1 | 208 to 209 °C
CCCCc1nc(CO)c(Cl)n1Cc1ccccc1 | 78 to 80 °C

stdin: Check the records and state melting point for C=CCn1c(=O)c2cnc(Nc3ccc(OCCN(CC)CC)cc3)nc2n(C(C)C)c1=O
stdout: 90 to 96 °C

stdin: Check the records and state melting point for COC(=O)CCC(=O)Nc1cccc(O)c1
stdout: 144 to 146 °C
